These data points were gathered from patent US12042530B2.

Assignment: determine reported Copies/cell class, CLL3 for the given substances.
Target Entity: HLA-A*0201 (HLA-A2) peptide complexes (Homo sapiens, UniProt P04439, D140Y/D185E/D98H/E176V/E277Q/G131W/G231S/I119V/I121R/I166T/I218V/L300P/L318F/N151K/N90K/P208A/P217A/Q86G/Q94H/R138H/R169H/T345S)
Construct: endogenous in cells; host or cells: JY B-lymphoblastoid line; primary CLL, MCL, AML, ALL samples; healthy splenic T and B cells
Assay Details: HLA-A*0201 phosphopeptides associated with leukemia samples (isolation of HLA-associated peptides)
Conditions Used: CLL3
// no unit string in output, number only

**Q:** Tell me the measured Copies/cell class, CLL3 of 464 (VMIGSPKKV; SITE (1)..(9): One or more of the listed amino acids can be phosphorylated as set forth in the Tables; listed as Homo sapiens) [compound 464] , please.
**A:** 0

**Q:** Tell me the measured Copies/cell class, CLL3 of 444 (KMDSFLDMQL; SITE (1)..(10): One or more of the listed amino acids can be phosphorylated as set forth in the Tables; listed as Homo sapiens) [compound 444] , please.
**A:** 0

**Q:** Tell me the measured Copies/cell class, CLL3 of 459 (RVASPTSGV; SITE (1)..(109: One or more of the listed amino acids can be phosphorylated as set forth in the Tables; listed as Homo sapiens) [compound 459] , please.
**A:** 0

**Q:** Tell me the measured Copies/cell class, CLL3 of 436 (KAKSPAPGL; SITE (1)..(9): One or more of the listed amino acids can be phosphorylated as set forth in the Tables; listed as Homo sapiens) [compound 436] , please.
**A:** 0

###

Assignment: determine reported Copies/cell class, T Cell for the given substances.
Target Entity: HLA-B*0702 (HLA-B7) peptide complexes (Homo sapiens)
Construct: endogenous in cells; host or cells: JY B-lymphoblastoid line; primary ALL, CLL, HCL, AML samples; bone marrow; healthy B and T cells
Assay Details: HLA-B*0702 phosphopeptides associated with leukemia samples (isolation of HLA-associated peptides)
Conditions Used: healthy T cells
Description: To identify naturally processed tumor-associated phosphopeptides, HLA-A*0201 (HLA-A2) and HLA-B*0702 (HLA-B7) peptide complexes from four (4) chronic lymphocytic leukemia (CLL) tumor samples, a mantle cell lymphoma sample (MCL), one acute lymphoblastic leukemia (ALL), and an acute myeloid leukemia (AML) sample, in addition to healthy splenic T and B-cells and the cultured lymphoblastoid cell line JY were isolated. […]
Non-standard residues stand in square brackets, D forms with d. No end group written: not given here. pS = N[C@@H](COP(=O)(O)O)C(=O)O

**Q:** Tell me the measured Copies/cell class, T Cell of 319 (RPN[pS]PSPTAL; listed as Homo sapiens) [compound 319] , please.
**A:** 1 (1 indicates <1 copy/cell)

**Q:** Tell me the measured Copies/cell class, T Cell of 322 (RPP[pS]SEFLDL; listed as Homo sapiens) [compound 322] , please.
**A:** 2 (2 indicates 1-5 copies/cell)

**Q:** Tell me the measured Copies/cell class, T Cell of 382 (SPS[pS]PSVRRQL; listed as Homo sapiens) [compound 382] , please.
**A:** 2 (2 indicates 1-5 copies/cell)

**Q:** Tell me the measured Copies/cell class, T Cell of 351 (RPY[pS]PPFFSL; listed as Homo sapiens) [compound 351] , please.
**A:** 2 (2 indicates 1-5 copies/cell)

**Q:** Tell me the measured Copies/cell class, T Cell of 324 (RPQRAT[pS]NVF; listed as Homo sapiens) [compound 324] , please.
**A:** 3 (3 indicates 6-25 copies per cell)
